Where do the numbers come from? From patent US20250188110A1.

- measurementTarget: KMT9 (Homo sapiens, UniProt Q9Y5N5)
- Sequence (Q9Y5N5 whole entry): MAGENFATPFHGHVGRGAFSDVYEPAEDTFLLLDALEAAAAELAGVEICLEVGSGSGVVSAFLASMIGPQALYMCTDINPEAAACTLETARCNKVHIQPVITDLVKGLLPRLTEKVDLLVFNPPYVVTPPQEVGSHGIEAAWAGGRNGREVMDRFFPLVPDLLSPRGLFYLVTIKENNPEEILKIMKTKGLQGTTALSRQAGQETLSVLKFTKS
- Sequence (Q9UI30 1-120 isoform Q9UI30-2 partner): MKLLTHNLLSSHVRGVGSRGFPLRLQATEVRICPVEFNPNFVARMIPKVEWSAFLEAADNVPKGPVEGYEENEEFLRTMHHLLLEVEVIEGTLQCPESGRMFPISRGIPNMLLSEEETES
- assayDetails: Microscale thermophoresis (MST) KMT9 binding
- details: His-tag labelled KMT9 20 nM; Kd class; read-out: MST
- Method: To determine the binding affinity of the compounds according to the present invention and KMT9, microscale thermophoresis (MST) analysis was performed with a NanoTemper Monolith NT.115 instrument (NanoTemper Technologies GmbH). KMT9 was labelled with a RED-Tris-NTA labelling kit (NanoTemper Technologies GmbH) based on the manufacturer's instructions. Buffer including 25 mM HEPES (pH 7.5), 100 mM NaCl, 1 mM DTT and 0.05% Tween was used for the reaction buffer. […]
reportedMetric: Kd

Sample answers from the record:
Form: compound = Nc1ncnc2c1ccn2[C@@H]1C[C@H](c2cccc(-c3cccnc3)c2)[C@@H](O)[C@H]1O [Compound 649] ; Kd = > 1000 nM

The compound listed as CC(C)N1CCC([C@H]2C[C@@H](n3cc(-c4nc(Cc5ccccc5)cs4)c4c(N)nc(Cl)nc43)[C@H](O)[C@@H]2O)CC1 [Compound 506] has a reported Kd of ≤ 10 nM

--- query ---
Measured Kd of O[C@@H]1[C@H](O)[C@@H](C2CCCN(CC3CC3)C2)C[C@H]1n1cc(-c2nc(Cc3ccccc3)cs2)c2cnc(Cl)nc21 (stereo partly drawn) [Compound 516] : 100 to 1000 nM
